The reported measurements were obtained from patent US20260008760A1.

- tgt: human DPP1 enzyme (Homo sapiens, UniProt P53634)
- Sequence (P53634 25-463): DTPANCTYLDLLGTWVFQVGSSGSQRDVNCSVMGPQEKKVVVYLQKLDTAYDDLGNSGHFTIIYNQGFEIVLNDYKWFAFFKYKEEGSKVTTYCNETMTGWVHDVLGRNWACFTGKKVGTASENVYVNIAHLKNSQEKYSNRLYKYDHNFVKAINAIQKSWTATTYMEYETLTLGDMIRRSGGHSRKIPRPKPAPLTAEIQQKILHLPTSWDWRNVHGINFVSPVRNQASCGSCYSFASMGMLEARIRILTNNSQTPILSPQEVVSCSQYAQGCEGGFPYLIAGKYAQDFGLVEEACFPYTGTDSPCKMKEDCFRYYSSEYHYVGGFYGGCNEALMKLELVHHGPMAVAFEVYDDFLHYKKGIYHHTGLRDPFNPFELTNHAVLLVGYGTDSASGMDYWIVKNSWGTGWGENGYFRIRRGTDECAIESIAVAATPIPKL
- experiment-summary: Human DPP1 Enzyme Single-Point Percent Inhibition Testing (HL-60 lysate)
- Format: biochemical
- Design: A crude lysate of HL-60 cells (ATCC; Manassas, VA) was used as a source of human DPP1 enzyme; host or cells: HL-60 cells (crude lysate)
- condition-label: final compound concentration of 10 nM, 400 μM H-Gly-Arg-AMC, n = 1
- Method: Example 98. Human DPP1 Enzyme Single-Point Percent Inhibition Testing A crude lysate of HL-60 cells (ATCC; Manassas, VA) was used as a source of human DPP1 enzyme in the assay. […] Substrate cleavage was measured for 90 minutes at 37° C., with fluorescence at Excitation/Emission 350/450 nm measured every 5 minutes. […] Percent inhibition at 10 nM was calculated for each test article based on remaining DPP1 activity compared to enzyme activity in wells that received only vehicle control.
Some compounds, each annotated with its measured inhibition at 0.01 µM.

Example entries begin here.
• CO[C@@H]1CCNC[C@@H](C(=O)NC(C#N)Cc2cc3c(cc2F)-c2cc4c(cc2CO3)oc(=O)n4C)OC1 (stereo partly shown) = ≥ 66.7%
• Cc1nc(C)c2cc(-c3ccc(C[C@@H](C#N)NC(=O)[C@@H]4CN[C@@H](C)[C@H](O)CO4)cc3)cn2c1C = ≥ 66.7%
• C[C@@H]1NC[C@@H](C(=O)NC(C#N)Cc2cc3c(cc2F)-c2cc4c(cc2CO3)oc(=O)n4C)OC[C@H]1O (stereo partly shown) = ≥ 66.7%
• COC1CNC[C@@H](C(=O)N[C@H](C#N)Cc2ccc(-c3cc4c(C)nc(C)cn4c3)cc2)OC1 (stereo partly shown) = 40 to 66.7%
• CO[C@H]1CCO[C@H](C(=O)N[C@H](C#N)Cc2ccc(-c3ccc4cnn(C5CCN(C)CC5)c4c3)cc2)CNC1 = 40 to 66.7%

Give the value of inhibition at 0.01 µM reported for the following: C[C@@H]1NC[C@@H](C(=O)N[C@H](C#N)Cc2ccc(-c3ccc4cnn(C5CCN(C)CC5)c4c3)cc2)OC[C@@H]1O
≤ 40%

Give the value of inhibition at 0.01 µM reported for the following: CO[C@H]1CCO[C@H](C(=O)N[C@H](C#N)Cc2ccc(-c3cc4c(C)nc(C)cn4c3)cc2F)CNC1
≤ 40%
